variants and their reported self-cleavage
B1: HDV Ribozyme (parent)
chain: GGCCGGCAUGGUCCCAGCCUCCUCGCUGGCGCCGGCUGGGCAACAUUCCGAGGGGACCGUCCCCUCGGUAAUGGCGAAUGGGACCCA

- Variants of: B1
- EXPERIMENT SUMMARY: self-cleavage, relative activity (ratio to wild type); higher = more cleavage; co-transcriptional

> print(dat)
    mutation  measured.quantity  result
1  G38A G76U      self-cleavage   0.202

Problem: Entry under review: G28C U47A . Reported self-cleavage?
Solution: 0.0536

Problem: Okay, and G34A G82C ?
Solution: 0.261

Problem: Thanks! And C24G C48U ?
Solution: 0.14

Problem: Can you check U23A A51C next?
Solution: 0.731

Problem: Also G29U A45C , if possible.
Solution: 0.113
